Test: Stability of cannabinoid compounds and Vitamin E components in Beverage 1 (AB White) by LCMSMS
Type: physicochemical
Conditions: AB White stored at 21-25° C.; 29 days
endpoint_name: Stability of Plant-Derived Cannabinoid Compounds in AB White, 21-25° C. (µg/mL)
Hi! Could you send only the number? It should be in µg/mL, unit omitted.

compound: C=C(C)[C@@H]1CCC(C)=C[C@H]1c1c(O)cc(CCC)cc1O
unit_name: µg/mL
value_measured: 0.147
//
compound: CCCCCc1cc(O)c2c(c1)OC(C)(C)c1ccc(C)cc1-2
unit_name: µg/mL
value_measured: 2.75
//
compound: CCCCCc1cc2c(c(O)c1C(=O)O)[C@@H]1C=C(C)CC[C@H]1C(C)(C)O2 [D9 THCA, delta-9-tetrahydrocannabinolic acid]
unit_name: µg/mL
value_measured: 0.922
//
compound: CCCCCc1cc(O)c(C/C=C(\C)CCC=C(C)C)c(O)c1
unit_name: µg/mL
value_measured: 4.76

Problem: # input compound: CCCCCc1cc(O)c2c(c1)OC(C)(C)[C@@H]1CCC(C)=C[C@@H]21 [D9 THC, delta-9-tetrahydrocannabinol, reference compound] ; wanted: its Stability of Plant-Derived Cannabinoid Compounds in AB White, 21-25° C.
Result: 11.9

Problem: Next record, please: CCCc1cc(O)c2c(c1)OC(C)(C)[C@@H]1CCC(C)=C[C@@H]21 [THCV, delta-9-tetrahydrocannabivarin]
Result: 3.62

Problem: Next record, please: CCCCCc1cc(O)c2c(c1)OC1(C)CCC3C1C2C3(C)C (stereo not drawn)
Result: 0.552

Problem: Next record, please: CCCCCc1cc(O)c2c(c1)OC(C)(CCC=C(C)C)C=C2 (stereo not drawn)
Result: 0.317

Problem: Next record, please: "C=C(C)[C@@H]1CCC(C)=C[C@H]1c1c(O)cc(CCCCC)c(C(=O)O)c1O"
Result: 1.76

###

Experiment: Stability of cannabinoid compounds and Vitamin E components in Beverage 2 (AB Red) by LCMSMS
Assay type: physicochemical
Conditions: stored at 21-25° C., 12 days
Field: label. Allowed values: true (Stability of Plant-Derived Cannabinoid Compounds in AB Red < 0.5 µg/mL) or false (Stability of Plant-Derived Cannabinoid Compounds in AB Red >= 0.5 µg/mL).

Solved entries (count: 6):
compound: CCCc1cc(O)c2c(c1)OC(C)(C)[C@@H]1CCC(C)=C[C@@H]21 [THCV, delta-9-tetrahydrocannabivarin]
assigned_class: false
//
compound: C=C(C)[C@@H]1CCC(C)=C[C@H]1c1c(O)cc(CCC)cc1O [CBDV, cannabidivarin]
assigned_class: true
//
compound: CCCCCc1cc2c(c(O)c1C(=O)O)[C@@H]1C=C(C)CC[C@H]1C(C)(C)O2 [D9 THCA, delta-9-tetrahydrocannabinolic acid]
assigned_class: false
//
compound: CCCCCc1cc(O)c2c(c1)OC(C)(CCC=C(C)C)C=C2 (stereo not drawn) [CBC, cannabichromene]
assigned_class: true
//
compound: CCCCCc1cc(O)c(C/C=C(\C)CCC=C(C)C)c(O)c1 [CBG, cannabigerol]
assigned_class: false
//
compound: CCCCCc1cc(O)c2c(c1)OC(C)(C)[C@@H]1CCC(C)=C[C@@H]21 [D9 THC, delta-9-tetrahydrocannabinol, reference compound]
assigned_class: false

Problem: Confirm or reject: Stability of Plant-Derived Cannabinoid Compounds in AB Red of C=C(C)[C@@H]1CCC(C)=C[C@H]1c1c(O)cc(CCCCC)c(C(=O)O)c1O [CBDA, cannabidiolic acid] lies strictly below 0.5 µg/mL
Result: false

Problem: Next record, please: CCCCCc1cc(O)c2c(c1)OC(C)(C)c1ccc(C)cc1-2 [CBN, cannabinol]
Result: false

The measurements presented in this section are drawn from patent US20260130395A1.
